Source listed as paper PMC4822050.

# TARGET: T1, TTD (residues 134–285) of UHRF1 (Homo sapiens, UniProt Q96T88)
# T1 construct: TTD (residues 134–285); GST (N, cleaved yes); made in house; host or cells: E. coli BL21 (DE3)
# T1 sequence (Q96T88 134-285): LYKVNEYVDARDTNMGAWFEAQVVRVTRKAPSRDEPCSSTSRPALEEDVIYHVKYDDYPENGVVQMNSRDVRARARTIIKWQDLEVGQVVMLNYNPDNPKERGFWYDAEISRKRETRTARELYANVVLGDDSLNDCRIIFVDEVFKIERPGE
# PROTOCOL: ITC, TTD titrated into Spacer variants and other UHRF1 fragments
# Assay type: binding
# ASSAY CONTEXT: ITC stoichiometry, TTD in syringe
The label depends only on N: TRUE if it is at least 1, FALSE if it is smaller.

# MOLECULE, GROUP
data = [
    ("Spacer∆670-674: deletion of the Spacer, residues 670–674 (protein, left off: GST, end not stated, cleaved) PGPWTKEGKDRIKKLGLTMQYPEGYLEALANREREKENSKREEEEQQEGGFASPRTGKGKWKRKSAGGGPSRAGSPRRTSKKT", "TRUE"),
    ("SpacerS666D: mutation S666D of the Spacer, negative control (protein, left off: GST, end not stated, cleaved, mutation S666D of the Spacer, negative control) PGPWTKEGKDRIKKLGLTMQYPEGYLEALANREREKENSKREEEEQQEGGFASPRTGKGKWKRKSAGGGPSRAGSPRRTDKKTKVEPY", "TRUE"),
    ("SRA–Spacer: human UHRF1 residues 414–674 (protein, left off: GST, end not stated, cleaved) PSNHYGPIPGIPVGTMWRFRVQVSESGVHRPHVAGIHGRSNDGAYSLVLAGGYEDDVDHGNFFTYTGSGGRDLSGNKRTAEQSCDQKLTNTNRALALNCFAPINDQEGAEAKDWRSGKPVRVVRNVKGGKNSKYAPAEGNRYDGIYKVVKYWPEKGKSGFLVWRYLLRRDDDEPGPWTKEGKDRIKKLGLTMQYPEGYLEALANREREKENSKREEEEQQEGGFASPRTGKGKWKRKSAGGGPSRAGSPRRTSKKTKVEPY", "FALSE"),
    ("SpacerR649A: mutation R649A of the Spacer (protein, left off: GST, end not stated, cleaved, mutation R649A of the Spacer) PGPWTKEGKDRIKKLGLTMQYPEGYLEALANREREKENSKREEEEQQEGGFASPRTGKGKWKAKSAGGGPSRAGSPRRTSKKTKVEPY", "TRUE"),
    ("SpacerK648D: mutation K648D of the Spacer (protein, left off: GST, end not stated, cleaved, mutation K648D of the Spacer) PGPWTKEGKDRIKKLGLTMQYPEGYLEALANREREKENSKREEEEQQEGGFASPRTGKGKWDRKSAGGGPSRAGSPRRTSKKTKVEPY", "FALSE"),
    ("Spacer ∆642-651: internal deletion of the Spacer, residues 642–651 (protein, left off: GST, end not stated, cleaved) PGPWTKEGKDRIKKLGLTMQYPEGYLEALANREREKENSKREEEEQQEGGFASPRAGGGPSRAGSPRRTSKKTKVEPY", "FALSE"),
    ("Spacer∆665-669: internal deletion of the Spacer, residues 665–669 (protein, left off: GST, end not stated, cleaved) PGPWTKEGKDRIKKLGLTMQYPEGYLEALANREREKENSKREEEEQQEGGFASPRTGKGKWKRKSAGGGPSRAGSPRRKVEPY", "TRUE"),
    ("Spacer: C-terminal spacer region of human UHRF1 (residues 587–674) (protein, left off: GST, end not stated, cleaved) PGPWTKEGKDRIKKLGLTMQYPEGYLEALANREREKENSKREEEEQQEGGFASPRTGKGKWKRKSAGGGPSRAGSPRRTSKKTKVEPY", "FALSE"),
    ("Spacer∆650-654: internal deletion of the Spacer, residues 650–654 (protein, left off: GST, end not stated, cleaved) PGPWTKEGKDRIKKLGLTMQYPEGYLEALANREREKENSKREEEEQQEGGFASPRTGKGKWKRGPSRAGSPRRTSKKTKVEPY", "FALSE"),
    ("SpacerS639D: mutation S639D of the Spacer, negative control (protein, left off: GST, end not stated, cleaved, mutation S639D of the Spacer, negative control) PGPWTKEGKDRIKKLGLTMQYPEGYLEALANREREKENSKREEEEQQEGGFADPRTGKGKWKRKSAGGGPSRAGSPRRTSKKTKVEPY", "TRUE"),
]
